src = the RNAGym collection of RNA variant scans (doi:10.7554/elife.80360)

B1: CPEB3 Ribozyme (parent)
chain: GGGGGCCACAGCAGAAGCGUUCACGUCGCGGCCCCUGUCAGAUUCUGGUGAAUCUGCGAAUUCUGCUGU

Variants of: B1
Assay: self-cleavage, relative activity (ratio to wild type); higher = more cleavage; co-transcriptional
Record yes whenever self-cleavage is at 0.2 or higher; record no when lower.

Hi, just wondering whether A52G G58A shows self-cleavage of 0.2 or higher.
yes

Hi, just wondering whether A15C C34A shows self-cleavage of 0.2 or higher.
yes

Hi, just wondering whether A10U U26A shows self-cleavage of 0.2 or higher.
yes

Hi, just wondering whether G11C C29A shows self-cleavage of 0.2 or higher.
no

Hi, just wondering whether U43A G68C shows self-cleavage of 0.2 or higher.
yes

Hi, just wondering whether G1U G4A shows self-cleavage of 0.2 or higher.
no
